Value source: PubChem BioAssay AID1845202

System: DMS 114 tumor spheroids, viability % test/control
Test: Anticancer human tumor DMS 114 cell line growth inhibition;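 note: luminescence used as a proxy for viable cells; spheroids exposed to compounds for 7 days before read-out; 100% = DMSO vehicle control viability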
Conditions: second compound 31.6 µM; first compound 0.3 µM; stronger effect = lower value; spheroids with HUVEC and MSC
Would you kindly list viability, T/C for each of these compounds?
Entry rule: numbers only, all in %.

Form entry - test system: DMS 114 tumor spheroids, viability % test/control; read-out: viability, T/C; compound: Cn1ncnc1[C@H]1c2n[nH]c(=O)c3cc(F)cc(c23)N[C@@H]1c1ccc(F)cc1 + Cn1nnc2c(C(N)=O)ncn2c1=O
27.6

Next compound up: O=C(c1cc(Cc2n[nH]c(=O)c3ccccc23)ccc1F)N1CCN(C(=O)C2CC2)CC1 + Cn1nnc2c(C(N)=O)ncn2c1=O
103

Now this one: Cc1sc2c(c1C)C(c1ccc(Cl)cc1)=NC(CC(=O)Nc1ccc(O)cc1)c1nnc(C)n1-2 (centres undefined) + Cn1nnc2c(C(N)=O)ncn2c1=O
28.6

Another compound to check: CNCc1ccc(-c2cc(-c3nc(-c4ccc(S(=O)(=O)C(C)C)cc4)cnc3N)on2)cc1 + Cn1nnc2c(C(N)=O)ncn2c1=O
22.4
